# test-summary: Permeability in static Transwell system
# run-parameters: human
measured-attribute: Papp at 180 min, 10 μg/mL

> print(dat)
                                   compound          result
1  CN1C[C@H](C(=O)N[C@]2(C)O[C@@]3(O)[C@@H]4CCCN4C(=O)[C@H](Cc4ccccc4)N3C2=O)C=C2c3cccc4[nH]cc(c34)C[C@H]21 [ergotamine]  8.6 ×10⁻⁶ cm/s
